Where do these numbers come from? They come from paper PMC7954794.

B1: S. cerevisiae Abp1 (full length; SH3 domain 535-592 mutated) / Hua2 (parent)
chain 1: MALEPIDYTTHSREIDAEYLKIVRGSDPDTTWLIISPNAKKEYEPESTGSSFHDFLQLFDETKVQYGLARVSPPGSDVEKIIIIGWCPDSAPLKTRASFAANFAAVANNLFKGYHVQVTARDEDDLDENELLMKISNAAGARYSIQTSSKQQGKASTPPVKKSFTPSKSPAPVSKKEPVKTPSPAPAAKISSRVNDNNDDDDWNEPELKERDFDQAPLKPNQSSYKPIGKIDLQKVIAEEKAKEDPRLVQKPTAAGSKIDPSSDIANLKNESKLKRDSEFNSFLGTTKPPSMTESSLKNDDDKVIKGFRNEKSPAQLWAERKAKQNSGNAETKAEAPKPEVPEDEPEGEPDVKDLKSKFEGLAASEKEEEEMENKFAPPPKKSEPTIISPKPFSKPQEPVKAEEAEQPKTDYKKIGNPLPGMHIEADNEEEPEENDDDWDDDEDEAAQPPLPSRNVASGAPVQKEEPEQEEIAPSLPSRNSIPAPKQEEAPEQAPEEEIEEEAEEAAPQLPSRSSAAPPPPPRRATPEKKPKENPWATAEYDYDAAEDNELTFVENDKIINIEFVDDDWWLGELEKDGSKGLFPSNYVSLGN
chain 2: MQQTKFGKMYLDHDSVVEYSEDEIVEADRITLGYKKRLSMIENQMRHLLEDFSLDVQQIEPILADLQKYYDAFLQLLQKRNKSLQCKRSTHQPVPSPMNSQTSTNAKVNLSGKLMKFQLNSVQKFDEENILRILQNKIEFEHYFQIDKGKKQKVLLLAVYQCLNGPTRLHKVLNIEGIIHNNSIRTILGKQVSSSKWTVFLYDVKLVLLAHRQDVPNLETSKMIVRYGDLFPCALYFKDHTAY

- Variants of: B1
- PROTOCOL: DHFR protein-fragment complementation in yeast (Abp1-DHFR F[1,2] x partner-DHFR F[3]), deep mutational scanning, second methotrexate selection vs reference
- RUN_PARAMETERS: with Hua2; S. cerevisiae, DHFR-PCA selection in liquid with methotrexate at 30 C, two 72 h selections (the score uses the second); reference = the pre-selection culture; not an affinity; scale: DMS score: mean over two replicates of log2(f_test/f_ref + 0.5)/ln 2, minus the synonymous-codon median
MEASURED_METRIC: screen value

Below are worked cases with known answers.
chain 1 I562W	-2.85
chain 1 F564N	-2.93
chain 1 E563W	-2.93

a = chain 1 N586W
b = chain 1 F583Y
Param pair: a , b . Output: the one whose screen value is numerically greater. Selection: enter the item's label.
b
(b: -1.68, a: -2.53)
